# Test system: 786-0 renal
# Test description: NCI tumour cell line growth inhibition, 48 h
Readout kind: TGI

Check out these entries, answers already filled in.
                                   compound  data_value
0  CCOC(=O)NC(=O)c1cn(CCCCCCOC(=O)NCCCCCCNC(=O)OCCCCCCn2cc(C(=O)NC(=O)OCC)c(=O)[nH]c2=O)c(=O)[nH]c1=O    > 100 µM
1  Cc1ccc(S(=O)(=O)Nc2cccc3[nH]c(C(F)(F)F)nc23)cc1     67.3 µM
2  c1cn(C23C4C5C6C4C2C6C53)cn1 (stereo not given)    > 100 µM
3  CN(C)c1ccc2c(c1)OC(N)=C(C#N)C2c1ccc2c(c1)CCO2 (stereo not given)     25.1 µM

Form: compound = C[C@]12CCC3[C@@H](CC[C@@H]4c5nonc5CC[C@]34C)C1C/C(=N/O)C2=O (stereo not given in full) ; TGI = > 100 µM

Form: compound = `COc1cc(/C=C2\Sc3scc(-c4cccc([N+](=O)[O-])c4)[n+]3C2=O)cc(OC)c1OC` ; TGI = 22.2 µM

* * *

# Tested on: LOX IMVI melanoma
# Test description: NCI tumour cell line growth inhibition, 48 h
Readout kind: TGI

Check out these entries, answers already filled in.
>>> print(df.to_string())
                                   compound  readout_kind  data_value
0  COc1ccc2c(c1)C(=O)c1c-2c(N(C)C)nc2ccccc12           TGI    > 100 µM
1  Cc1ccc(S(=O)(=O)Nc2cccc3[nH]c(C(F)(F)F)nc23)cc1           TGI    > 100 µM
2  CCOC(=O)c1cc2c(C(=O)c3ccc([N+](=O)[O-])cc3)c(C(C)=O)ccc2[nH]1           TGI    > 100 µM
3  Nc1nc(Nc2ccc(C3CCC(N4CCOCC4)CC3)cc2)nn1-c1ccccn1 (stereo not given)           TGI     9.37 µM

# ---- query compound ----
Form: compound = CN1c2ccccc2N(C)C23N(C)c4ccccc4N(C)C12N(C)c1ccccc1N3C (stereo not given) ; TGI = > 100 µM

* * *

# System: HL-60(TB) leukemia
# Test description: NCI tumour cell line growth inhibition, 48 h
Readout kind: TGI

Form: molecule = COc1cc2c(cc1OC)C(Cl)C(c1ccc(Cl)c(Cl)c1)=C2Cl (centres undefined) ; TGI = 9.47 µM

Form: molecule = `O=c1oc2ccccc2cc1-c1cn2cc(Cl)ccc2n1` ; TGI = > 61.7 µM

Form: molecule = C/C=C(/C)C(=O)O[C@H](C[C@@H](C)[C@H]1CC(c2ccoc2)OC1=O)[C@@]1(C)C(=O)CCC2O[C@]21C (some centres undefined) ; TGI = > 100 µM

Form: molecule = `O=CN/C=C/c1ccc(O)c(O)c1` ; TGI = > 100 µM

Form: molecule = `O=C(Nc1ccccc1)N(CCCCN(Cc1ccccc1)C(=O)Nc1ccccc1)Cc1ccccc1` ; TGI = > 100 µM

Form: molecule = `CCOC(=O)NC(=O)c1cn(CCN2CCN(c3ncnc4nc[nH]c34)CC2)c(=O)[nH]c1=O` ; TGI = > 100 µM

Form: molecule = `COC(=O)[C@H]1CO[C@H]2C/C(C)=C/CC/C(C)=C/CC[C@@]3(C)O[C@@H]3C[C@H]21` ; TGI = 26.2 µM
